target under test: Human fibrinogen receptor (αIIbβ3) (Homo sapiens, UniProt P05106+P08514)
Construct: Human fibrinogen receptor (αIIbβ3) was purified from outdated platelets; from tissue; host or cells: outdated human platelets
Sequence (P08514 32-887 limits assumed): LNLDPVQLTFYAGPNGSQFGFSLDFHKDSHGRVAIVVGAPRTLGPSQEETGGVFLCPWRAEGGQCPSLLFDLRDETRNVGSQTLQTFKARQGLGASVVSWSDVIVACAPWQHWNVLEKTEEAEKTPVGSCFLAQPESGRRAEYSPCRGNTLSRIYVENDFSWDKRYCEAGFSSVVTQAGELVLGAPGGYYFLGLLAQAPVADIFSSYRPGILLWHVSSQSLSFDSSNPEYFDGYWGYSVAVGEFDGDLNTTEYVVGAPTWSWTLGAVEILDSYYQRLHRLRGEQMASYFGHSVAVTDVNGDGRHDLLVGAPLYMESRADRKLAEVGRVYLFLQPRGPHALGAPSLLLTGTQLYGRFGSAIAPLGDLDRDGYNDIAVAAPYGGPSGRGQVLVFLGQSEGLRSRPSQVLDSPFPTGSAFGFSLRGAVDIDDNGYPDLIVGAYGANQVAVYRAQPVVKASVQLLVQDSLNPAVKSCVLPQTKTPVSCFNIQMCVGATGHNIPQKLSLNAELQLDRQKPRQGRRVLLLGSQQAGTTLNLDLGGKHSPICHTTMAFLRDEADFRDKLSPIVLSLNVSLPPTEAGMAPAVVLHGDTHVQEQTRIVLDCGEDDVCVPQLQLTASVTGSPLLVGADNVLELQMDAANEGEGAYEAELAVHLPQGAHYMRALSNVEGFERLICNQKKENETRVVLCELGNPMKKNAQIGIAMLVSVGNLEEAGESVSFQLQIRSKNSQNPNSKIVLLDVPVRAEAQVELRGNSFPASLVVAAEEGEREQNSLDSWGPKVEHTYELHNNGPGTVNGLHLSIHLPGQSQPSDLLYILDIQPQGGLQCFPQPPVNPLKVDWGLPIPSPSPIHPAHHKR
Sequence (P08514 891-1039 limits assumed): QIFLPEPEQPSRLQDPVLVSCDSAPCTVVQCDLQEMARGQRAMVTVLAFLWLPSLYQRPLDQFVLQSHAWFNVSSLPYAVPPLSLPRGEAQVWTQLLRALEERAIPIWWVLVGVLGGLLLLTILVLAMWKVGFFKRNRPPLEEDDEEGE
Sequence (P05106 27-788): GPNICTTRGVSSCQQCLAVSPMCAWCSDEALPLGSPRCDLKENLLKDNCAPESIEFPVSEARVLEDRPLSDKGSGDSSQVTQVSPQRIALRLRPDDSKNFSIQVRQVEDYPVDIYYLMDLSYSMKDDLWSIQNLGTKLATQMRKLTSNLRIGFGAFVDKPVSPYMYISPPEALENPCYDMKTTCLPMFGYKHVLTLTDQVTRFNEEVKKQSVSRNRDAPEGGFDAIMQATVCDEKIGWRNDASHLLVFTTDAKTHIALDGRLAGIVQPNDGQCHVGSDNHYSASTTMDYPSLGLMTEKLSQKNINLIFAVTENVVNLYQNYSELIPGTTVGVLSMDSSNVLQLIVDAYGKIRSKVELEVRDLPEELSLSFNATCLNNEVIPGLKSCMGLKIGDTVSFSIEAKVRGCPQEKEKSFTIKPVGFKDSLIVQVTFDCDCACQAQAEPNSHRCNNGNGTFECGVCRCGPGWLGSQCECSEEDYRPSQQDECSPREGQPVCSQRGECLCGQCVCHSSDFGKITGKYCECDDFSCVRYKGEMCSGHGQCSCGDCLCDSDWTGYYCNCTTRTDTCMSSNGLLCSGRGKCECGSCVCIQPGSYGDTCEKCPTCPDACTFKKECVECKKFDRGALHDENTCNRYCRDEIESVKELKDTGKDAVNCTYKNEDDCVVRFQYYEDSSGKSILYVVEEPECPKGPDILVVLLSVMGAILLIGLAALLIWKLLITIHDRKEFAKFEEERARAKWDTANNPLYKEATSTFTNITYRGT
experiment description: Purified IIb/IIIa receptor assay (solid phase receptor assay, competition with biotinylated vitronectin)
Type: binding
condition context: read-out: IIb/IIIa IC50
Structures can show the parent of a compound that is named as a salt.
observation type: pIC50
Recall that pIC50 is obtained by taking minus log10 of the concentration measured in molar.

## Task # lookup: pIC50 of Cc1ccc(C(=O)NCC(=O)NC(CC(=O)O)c2cccnc2)cc1NC(=N)N (racemic)
## Result 7.01

## Task # lookup: pIC50 of N=C(N)Nc1cc(C(=O)NCC(=O)NC(CC(=O)O)c2cc(Cl)cc(Cl)c2)ccc1Cl (stereo not shown) [Example 168, trifluoroacetate salt]
## Result 6.57

## Task # lookup: pIC50 of COc1cc(C(CC(=O)O)NC(=O)CNC(=O)c2cccc(NC(=N)N)c2)cc(Br)c1OC (racemic) [Example 262, trifluoroacetate salt]
## Result 6.76

## Task # lookup: pIC50 of O=C(O)CC(NC(=O)CNC(=O)c1cccc(NC(=O)NCc2cccnc2)c1)c1cccnc1 (stereo not shown) [Example 127, bis trifluoroacetate salt]
## Result 6.34

## Task # lookup: pIC50 of NC(=S)Nc1cccc(C(=O)NCC(=O)NC(CC(=O)O)c2ccccc2)c1 (stereo not shown)
## Result 4.70

## Task # lookup: pIC50 of N=C(N)Nc1cc(C(=O)NCC(=O)NC(CC(=O)O)c2ccccc2)ccc1Cl (stereo not shown)
## Result 6.20

## Task # lookup: pIC50 of N=C(N)Nc1cccc(C(=O)NCC(=O)NC(CC(=O)O)c2ccc(Cl)c(Cl)c2)c1 (racemic) [Example 175, trifluoroacetate salt]
## Result 6.69
